# experiment.summary: adipocyte viability effects, profiling panel, cell-based, 3T3-L1 adipocytes, calcein-AM fluorescence, 48 h, basal (AID 1163); further: test concentration not given here
# conditions: 3T3-L1 adipocytes viability, higher = more signal
value.kind: z-score
# respond with the number and nothing more

# annotated cases, reported z-score shown
[
  {
    "compound": "CCOc1ccc(N2C(=O)/C(=C/C=C/c3ccccc3OC)S(=O)(=O)C2c2cccc([N+](=O)[O-])c2)cc1 (stereo not drawn)",
    "value.kind": "z-score",
    "observed.measurement": 1.39
  },
  {
    "compound": "C=CC[C@@H]1C=C[C@H](ON=Cc2ccc(C(=O)N3[C@H](c4ccc(C)cc4)[C@@H](C)CC[C@H]3C(=O)OC)cc2)[C@@H](CO)O1",
    "value.kind": "z-score",
    "observed.measurement": -0.361
  }
]

The reported z-score of the compound O=C1O[C@@H](c2ccccc2)[C@@H](c2ccccc2)N2[C@@H](c3ccc(OCCO)cc3)[C@]3(C(=O)Nc4ccccc43)[C@@H](C(=O)N3CCN(c4ncccn4)CC3)[C@H]12 was -0.888

The reported z-score of the compound N#Cc1ccc(NN2C(C(O)c3cccc4ccccc34)C=CC3C(=O)N(c4ccccc4)C(=O)C32)cc1 (stereo not drawn) was -0.506

The reported z-score of the compound C[C@@H]1CCC2C(=O)N(Cc3ccccc3)C[C@@H](O)CN2[C@H]1c1ccc(Br)cc1 (stereo partly drawn) was 0.13

The reported z-score of the compound CC(CCN1CCc2nc(-c3ccccc3)c(-c3ccccc3)cc2C1)=NOC[C@@H](C)[C@H](OCc1ccccc1)C(C)C was 0.503

The reported z-score of the compound COC(=O)[C@@H]1N=C(c2ccc(OCCCO)cc2)O[C@@H]1c1ccccc1N=[N+]=[N-] was 0.557

The reported z-score of the compound CCCC[C@H]1OB(O)C[C@H]2C1=C(C)C[C@H]1C(=O)N(C)C(=O)[C@H]12 was -0.623

###

# experiment.summary: small-molecule microarray binders of probe aWnt5a, primary screen, biochemical, biotinylated probe, 635/667 nm fluorescence (AID 1113);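 further: score merges 667 nm fluorescence intensity with signal-to-noise per printed feature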
# conditions: higher = more signal
Measured composite z-score by item
# respond with the number and nothing more

# annotated cases, reported composite z-score shown
[
  {
    "compound": "C=CCOC(=O)[C@H]1[C@@H]2C(=O)O[C@@H](c3ccccc3)[C@@H](c3ccccc3)N2[C@@H](c2ccc(OCCOC(=O)[C@H]3C[C@H]4C(=O)N5CCC[C@H]5C(=O)N4[C@H]3c3cccc(OCCO)c3)cc2)[C@]12C(=O)Nc1ccc(I)cc12",
    "composite z-score": 0.995
  },
  {
    "compound": "CC(=O)OC[C@H]1O[C@H](CC=NOC[C@@H](C)[C@H](OCc2ccccc2)C(C)C)C=C[C@@H]1OC(C)=O",
    "composite z-score": 0.0437
  },
  {
    "compound": "CCOC(=O)C[C@H]1[C@H](OC(=O)c2cc3ccccc3oc2=O)[C@@H](NC(=O)c2ccc3ccccc3n2)c2cc(OCCCO)ccc2N1C(=O)c1ccccc1",
    "composite z-score": 0.0374
  },
  {
    "compound": "C/C=C\\[C@@H](NCc1ccccc1Br)[C@@H](O)Cc1ccccc1",
    "composite z-score": -0.12
  },
  {
    "compound": "CCOC(=O)C1=CCC(c2cc3ccccc3[nH]2)NC1 (stereo not drawn)",
    "composite z-score": 0.0438
  }
]

The reported composite z-score of the compound CO[C@@H]1COC(=O)[C@H](C)NC(=O)[C@@H](C)COC(=O)CCC[C@H]1C was -0.101

The reported composite z-score of the compound CCCCc1nc2c(c3c1C[C@H](C)OC3)CN(CCC(C)C)CC2 was -0.0704

The reported composite z-score of the compound CC(CCN1CCCCc2nc(C)c(C)cc21)=NOC(C)CN1CCCc2nc(C)c(C)cc21 (stereo not drawn) was 0.298

###

# assayed.system: Fibroblast growth factor 2 (Homo sapiens) (UniProt P09038)
# Sequence (P09038 whole entry, looked up): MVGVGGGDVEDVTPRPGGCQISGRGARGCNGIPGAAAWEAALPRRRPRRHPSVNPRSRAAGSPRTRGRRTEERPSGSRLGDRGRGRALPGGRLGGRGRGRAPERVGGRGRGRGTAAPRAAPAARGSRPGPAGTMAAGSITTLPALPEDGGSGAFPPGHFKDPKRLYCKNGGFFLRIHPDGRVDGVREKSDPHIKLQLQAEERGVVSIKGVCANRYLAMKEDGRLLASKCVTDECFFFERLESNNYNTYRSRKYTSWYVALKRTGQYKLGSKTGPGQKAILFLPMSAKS
# experiment.summary: FGF2 binders on small-molecule microarrays, primary screen, biochemical, small-molecule microarray, 635/667 nm fluorescence (AID 1133)
# conditions: small-molecule microarray binding, FGF2, fluorescence 635/667; higher = more signal
So basically: composite z-score at 0.9 or higher? That is Satisfied. Lower than 0.9? That is Not satisfied.

Below, 5 compounds whose answers are already recorded.
[
  {
    "compound": "CC(C)[C@@H](OCc1ccccc1)[C@H](C)C=NOC[C@@H](C)[C@H](OCc1ccccc1)C(C)C",
    "assigned.class": "Not satisfied"
  },
  {
    "compound": "O=C(NN=C1C[C@@H](O)[C@@H](O)[C@@H]2[C@@H]3C(=O)N(c4cccc(Oc5ccccc5)c4)C(=O)[C@@H]3CC[C@@H]12)OCc1ccccc1",
    "assigned.class": "Not satisfied"
  },
  {
    "compound": "O=C1[C@H]2[C@H]3[C@H](O)[C@H](O)CC(=NOC[C@@H](O)COCc4ccco4)[C@H]3CC[C@H]2C(=O)N1C1CCCCC1",
    "assigned.class": "Satisfied"
  },
  {
    "compound": "CCCNC(=O)OC[C@H]1O[C@H](CCON=C[C@@H](OC)[C@H](C)C=CCC(=O)OC)C=C[C@@H]1Oc1ccc(OC)cc1",
    "assigned.class": "Not satisfied"
  },
  {
    "compound": "COCCOC(=O)N1C(=O)[C@@]2(c3cc(C#Cc4ccc(OC)cc4)ccc31)[C@H](c1ccc(O)cc1)N1[C@H](c3ccccc3)[C@H](c3ccccc3)OC(=O)[C@H]1[C@@H]2C(N)=O",
    "assigned.class": "Not satisfied"
  }
]

### Prompt In plain terms: is recorded composite z-score at least 0.9 for CC(C)N1CC=CC23O[C@@H]4C=CCCOC(=O)C4[C@H]2C(=O)N(CCCCCCO)[C@@H]3C1=O (some centres undefined) ?
### Response Not satisfied

### Prompt In plain terms: is recorded composite z-score at least 0.9 for Cn1cccc1C(O)C1C=CC2C(=O)NC(=O)C2N1Nc1ccccn1 (centres undefined) ?
### Response Not satisfied

### Prompt In plain terms: is recorded composite z-score at least 0.9 for Cc1ccc(C2CC=C(C(=O)O)CN2S(=O)(=O)c2ccc(C)cc2)cc1 (centres undefined) ?
### Response Not satisfied

### Prompt In plain terms: is recorded composite z-score at least 0.9 for CC(CCN1CCc2nc(-c3ccccc3)c(-c3ccccc3)cc2C1)=NO[C@@H](C)c1cn([C@H](CO)Cc2ccccc2)nn1 ?
### Response Not satisfied

### Prompt In plain terms: is recorded composite z-score at least 0.9 for CCOC(=O)[C@H](Cc1ccccc1)NC(=O)CCC1CC(OC(=O)NCCc2ccc(F)cc2)CC2(CCCC(COC(=O)NCC(c3ccccc3)c3ccccc3)O2)O1 (some centres undefined) ?
### Response Not satisfied

###

# experiment.summary: Plasmodium falciparum growth inhibition, primary screen, strain 3D7, DAPI fluorescence, 100 nL (AID 1184);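 further: parasites grown inside human red blood cells in medium with human serum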
# conditions: P. falciparum 3D7 growth, 3 d, higher = more signal
value.kind: z-score
# respond with the number and nothing more

# annotated cases, reported z-score shown
[
  {
    "mol.smiles": "NC(=O)NCC#Cc1ccc2c(c1)[C@]1(C(=O)N2)[C@H](c2ccc(O)cc2)N2[C@H](c3ccccc3)[C@H](c3ccccc3)OC(=O)[C@H]2[C@@H]1C(=O)N1CCCCCCC1",
    "observed.measurement": 0.308
  },
  {
    "mol.smiles": "C=CCN1C(=O)[C@]2(O[C@H](CCn3cc(CCO)nn3)[C@@H]([Si](C)(C)c3ccc(OC)cc3)[C@@H]2C)c2cc(N3CCOC3=O)ccc21",
    "observed.measurement": -2.7
  }
]

The reported z-score of the compound CCCCc1nc2c(c3c1C[C@H](C)OC3)CN(CCC(C)C)CC2 was -0.522

The reported z-score of the compound Cc1cc(C)c(-c2cc([C@H](C)ON=C3[C@H]4CCn5c(=O)n(-c6ccccc6)c(=O)n5[C@H]4[C@H](O)[C@@H]4O[C@H]34)on2)c(C)c1 was 0.173

###

# experiment.summary: small-molecule microarray binders of probe aEGFR, primary screen, biochemical, biotinylated probe, 635/667 nm fluorescence (AID 1097);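 further: probe is a biotinylated anti-EGFR antibody binding compounds printed on slides; score combines fluorescence near 667 nm and signal to noise of each spot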
# conditions: higher = more signal
Please assign a class to every record based on measured composite z-score, with ranges lower = under -0.1, middle = from -0.1 up to 0.04, upper = 0.04 and over

### Prompt Form field 'band' for COC(=O)CC1OC1[C@H](C)[C@@H](OC)C(C)C (some centres undefined)
### Response lower

### Prompt Form field 'band' for COCCOC(=O)N1C(=O)[C@@]2(c3cc(C#Cc4ccc(OC)cc4)ccc31)[C@H](c1ccc(O)cc1)N1[C@H](c3ccccc3)[C@H](c3ccccc3)OC(=O)[C@H]1[C@@H]2C(N)=O
### Response middle

### Prompt Form field 'band' for CC(C)[C@H](NC(=O)OC(C)(C)C)[C@@H](O)CC(=O)OC(C)(C)C
### Response lower

### Prompt Form field 'band' for CCOC(=O)[C@H](Cc1ccccc1)NC(=O)CCC1CC(OC(=O)NCc2ccc3c(c2)OCO3)CC2(CCCC(COC(=O)NCC3CCCCC3)O2)O1 (some centres undefined)
### Response upper

### Prompt Form field 'band' for O=C1[C@H]2[C@H]3[C@H](O)[C@H](O)CC(=NO[C@@H]4O[C@H](CO)[C@@H](O)[C@H](O)[C@H]4O)[C@@H]3CC[C@H]2C(=O)N1Cc1ccc2c(c1)OCO2
### Response middle

### Prompt Form field 'band' for O=C1O[C@@H](c2ccccc2)[C@@H](c2ccccc2)N2[C@@H](c3ccccc3OCCO)[C@]3(C(=O)Nc4ccc(C#CCCO)cc43)[C@@H](C(=O)O)[C@H]12
### Response lower
